Entry source: patent US5100907A

Assay: Total available formaldehyde (TF) and free formaldehyde (FF) levels of esters (I)
Assay type: physicochemical
Details: neat ester, Table 3
Text: Thus, whether the formaldehyde content is chemically bonded to the hydantoin moiety or is free formaldehyde (FF) in solution, e.g., in water as formaldehyde or methylene glycol [CH2 (OH)2 ], it remains available for biocidal action. Due to this direct relation, the weight percent TF in a given preparation of the ester (I), e.g. a cosmetic formulation, can be predicted accurately, regardless of the level of dilution.
I'd appreciate it if you could supply TF (total available formaldehyde) values for the items below.
Give bare numbers, in Wt. %.

Consider the worked cases shown below.
smilesRecord	TF (total available formaldehyde), Wt. %
CCCCCCCC/C=C\CCCCCCCC(=O)OCCN1C(=O)N(CO)C(=O)C1(C)C	6.5
CC(=O)OCCN1C(=O)N(CO)C(=O)C1(C)C	12.3
CCCCCCCCCCCC(=O)OCCN1C(=O)N(CO)C(=O)C1(C)C	8.0

Query compound follows.
Give the value of TF (total available formaldehyde) reported for the following: CCCCCCCCCCCCCCCCCC(=O)OCCN1C(=O)N(CO)C(=O)C1(C)C
6.4

====

Test: Emulsion stability tests
Format: physicochemical
Conditions: 2 Hours after preparation; 2% ester, 7% myristyl propionate, 91% water
Method: Emulsion stability tests were performed on the esters (I), and for comparison on the precursor esters (Ia), to determine the extent to which each stabilized a standardized solution of water and an oil, using a common procedure consisting of homogenizing a mixture containing the test ester (2%), myristyl propionate (7%), and water (91%). […]
I'd appreciate it if you could supply Classification of Emulsion values for the items below.

Consider the worked cases shown below.
smilesRecord	readoutValue
CC(=O)OCCN1C(=O)N(CO)C(=O)C1(C)C	2-Phase
CCCCCCCCCCCCCCCCCC(=O)OCCN1C(=O)NC(=O)C1(C)C	2-Phase

Query compound follows.
Give the value of Classification of Emulsion reported for the following: CC(=O)OCCN1C(=O)NC(=O)C1(C)C
2-Phase

====

Experiment: Total available formaldehyde (TF) and free formaldehyde (FF) levels of esters (I)
Assay type: physicochemical
Settings: neat ester, Table 3
I'd appreciate it if you could supply FF (free formaldehyde) values for the items below.
Give bare numbers, in Wt. %.

smilesRecord	readoutValue
CCCCCCCCCCCCCCCCCC(=O)OCCN1C(=O)N(CO)C(=O)C1(C)C	0.2
CCCCCCCCCCCC(=O)OCCN1C(=O)N(CO)C(=O)C1(C)C	0.2
CCCCCCCC/C=C\CCCCCCCC(=O)OCCN1C(=O)N(CO)C(=O)C1(C)C	0.2

Query molecule follows.
Give the value of FF (free formaldehyde) reported for the following: CC(=O)OCCN1C(=O)N(CO)C(=O)C1(C)C
0.6

====

I'd appreciate it if you could supply HLB Range values for the items below.
Assay: HLB determination (weighted average method)
Assay type: physicochemical

Consider the worked cases shown below.
molecule	HLB Range
CCCCCCCCCCCCCCCCCC(=O)OCCN1C(=O)NC(=O)C1(C)C [Stearic Non-Methylolated Ester]	1-3
CCCCCCCCCCCC(=O)OCCN1C(=O)NC(=O)C1(C)C [Non-Methylolated Lauric Ester]	5-7
CCCCCCCCCCCC(=O)OCCN1C(=O)N(CO)C(=O)C1(C)C [Methylolated Lauric Ester]	12-14
CCCCCCCC/C=C\CCCCCCCC(=O)OCCN1C(=O)N(CO)C(=O)C1(C)C [Methylolated Oleic Ester]	14-16
CCCCCCCC/C=C\CCCCCCCC(=O)OCCN1C(=O)NC(=O)C1(C)C [Oleic Non-Methylolated Ester]	8-9
CC(=O)OCCN1C(=O)N(CO)C(=O)C1(C)C [Acetic Methylolated Ester]	19-20
CCCCCCCCCCCCCCCCCC(=O)OCCN1C(=O)N(CO)C(=O)C1(C)C [Stearic Methylolated Ester]	6-8

Give the value of HLB Range reported for the following: CC(=O)OCCN1C(=O)NC(=O)C1(C)C [Acetic Non-Methylolated Ester]
6-8

====

Test: Emulsion stability tests
Assay type: physicochemical
Settings: 55 Days after preparation; 2% ester, 7% myristyl propionate, 91% water
valueType: Classification of Emulsion

smilesRecord	Classification of Emulsion
CC(=O)OCCN1C(=O)NC(=O)C1(C)C	2-Phase
CC(=O)OCCN1C(=O)N(CO)C(=O)C1(C)C	2-Phase
CCCCCCCCCCCCCCCCCC(=O)OCCN1C(=O)NC(=O)C1(C)C	2-Phase

Query molecule follows.
Give the value of Classification of Emulsion reported for the following: CCCCCCCC/C=C\CCCCCCCC(=O)OCCN1C(=O)NC(=O)C1(C)C
2-Phase

====

Assay: HLB determination (weighted average method)
Format: physicochemical
valueType: Average HLB
One number for each entry.

Consider the worked cases shown below.
smilesRecord	Average HLB
CCCCCCCC/C=C\CCCCCCCC(=O)OCCN1C(=O)N(CO)C(=O)C1(C)C	15.0
CCCCCCCCCCCC(=O)OCCN1C(=O)N(CO)C(=O)C1(C)C	12.8
CCCCCCCCCCCC(=O)OCCN1C(=O)NC(=O)C1(C)C	6.5
CC(=O)OCCN1C(=O)N(CO)C(=O)C1(C)C	19.0
CC(=O)OCCN1C(=O)NC(=O)C1(C)C	7.0
CCCCCCCC/C=C\CCCCCCCC(=O)OCCN1C(=O)NC(=O)C1(C)C	8.5

I have 2 compounds here; please give me Average HLB for each one.
1. CCCCCCCCCCCCCCCCCC(=O)OCCN1C(=O)N(CO)C(=O)C1(C)C
2. CCCCCCCCCCCCCCCCCC(=O)OCCN1C(=O)NC(=O)C1(C)C

1: 7.0; 2: 1.5

====

Test system: Pseudomonas aeruginosa
Experiment: Antimicrobial study against Pseudomonas aeruginosa (gram-negative bacteria)
Type: cell-based
Settings: Day 2; methylolated C8/10 10,800 ppm, methylolated lauric 11,400 ppm, DMDMH 3,000 ppm, others 14,700 ppm
valueType: Colony Count

Consider the worked cases shown below.
compound	Colony Count
CCCCCCCCCCCC(=O)OCCN1C(=O)N(CO)C(=O)C1(C)C	< 0.01 × 1,000
CCCCCCCCCCCC(=O)OCCN1C(=O)NC(=O)C1(C)C	TNC
CC1(C)C(=O)N(CO)C(=O)N1CO [DMDMH (iv), reference compound]	< 0.01 × 1,000
CCCCCCCC/C=C\CCCCCCCC(=O)OCCN1C(=O)N(CO)C(=O)C1(C)C	< 0.01 × 1,000
CCCCCCCCCCCCCCCCCC(=O)OCCOC(=O)CCCCCCCCCCCCCCCCC [EGDS, ethylene glycol distearate, reference compound]	TNC

Query compound follows.
Give the value of Colony Count reported for the following: CCCCCCCCCCCCOS(=O)(=O)[O-].[Na+] [SLS, Sodium lauryl sulfate, reference compound]
TNC
